The reported numbers originate from ChEMBL document CHEMBL1130107.

Biological target: Stromelysin-1 (Homo sapiens, UniProt P08254)
Sequence (P08254 whole entry): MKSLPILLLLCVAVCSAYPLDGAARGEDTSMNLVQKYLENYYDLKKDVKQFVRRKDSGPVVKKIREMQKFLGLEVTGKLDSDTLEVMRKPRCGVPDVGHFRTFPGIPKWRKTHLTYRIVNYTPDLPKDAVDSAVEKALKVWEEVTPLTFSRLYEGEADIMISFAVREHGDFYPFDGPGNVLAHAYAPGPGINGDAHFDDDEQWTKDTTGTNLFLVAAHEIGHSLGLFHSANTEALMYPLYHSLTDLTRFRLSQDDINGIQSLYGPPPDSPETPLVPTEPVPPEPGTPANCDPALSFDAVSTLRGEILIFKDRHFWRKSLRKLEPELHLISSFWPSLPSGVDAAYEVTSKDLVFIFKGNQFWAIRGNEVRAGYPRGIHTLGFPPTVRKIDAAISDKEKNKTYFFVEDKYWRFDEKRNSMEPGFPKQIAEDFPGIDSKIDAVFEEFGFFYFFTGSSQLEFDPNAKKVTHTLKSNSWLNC
Test: Inhibition activity against recombinant human stromelysin (Matrix metalloprotease-3)
Note to self: Ki under 70 nM means yes (1), ties and anything higher get no (0).

Please review the following examples before continuing.
{"Compound": "COc1ccc(S(=O)(=O)N(Cc2ccccc2)[C@@H](C)C(=O)NO)cc1", "Category": "no (0)"}
{"Compound": "COc1ccc(S(=O)(=O)N(CC(=O)NO)CC2CCCCC2)cc1", "Category": "yes (1)"}
{"Compound": "COc1ccc(S(=O)(=O)N(Cc2ccccc2)C(C)C(=O)NO)cc1 (stereo not given)", "Category": "no (0)"}
{"Compound": "COc1ccc(S(=O)(=O)N(CCC(C)C)CC(=O)NO)cc1", "Category": "no (0)"}

Strictly below 70 nM: is that where Ki of COc1ccc(S(=O)(=O)NCC(=O)NO)cc1 sits?
no (0)

Same question, COc1ccc(S(=O)(=O)N(Cc2ccccc2)[C@H](Cc2ccccc2)C(=O)NO)cc1 this time
yes (1)

Same lookup for CC(C)CN(CC(=O)NO)S(=O)(=O)c1ccc(N(C)C)cc1 , please.
no (0)

Also need COc1ccc(S(=O)(=O)N(Cc2ccccc2)C(C(=O)NO)C(C)C)cc1 (stereo not given) , thanks.
no (0)

Another compound to look at: COc1ccc(CN(CC(=O)NO)S(=O)(=O)c2ccc(OC)cc2)cc1
no (0)

Also COc1ccc(S(=O)(=O)N(Cc2ccccc2)[C@@H](C(=O)NO)C(C)C)cc1 ?
yes (1)

Also COc1ccc(S(=O)(=O)N(CC(=O)NO)Cc2ccc3ccccc3n2)cc1 ?
no (0)

Next compound up: COc1ccc(S(=O)(=O)N(Cc2ccccc2)[C@H](CC(C)C)C(=O)NO)cc1
yes (1)

Queued: COc1ccc(S(=O)(=O)N(Cc2ccccc2)[C@H](C)C(=O)NO)cc1
yes (1)
